Each entry below carries its reported bioavailability.
- TEST NAME: Oral bioavailability in rat at 5 mg/kg co-administered with 5 mg/kg of CYP3A4 inhibitor ritonavir relative to iv dose without ritonavir co-administration
- Type: ADME, organism-based
- CONDITION DETAILS: in vivo
# output: bare number, implied unit %

# SMILES ENTRY, QUANTITY NAME, MEASUREMENT UNIT, MEASUREMENT
measured = [
    ("COC(=O)N[C@H](C(=O)N[C@@H](Cc1ccccc1)C[C@H](O)[C@H](Cc1ccc(-c2ccc(OC)cc2)cc1)NC(=O)[C@@H](NC(=O)OC)C(C)(C)C)C(C)(C)C", "bioavailability", "%", 14),
    ("COC(=O)N[C@H](C(=O)N[C@@H](Cc1ccccc1)C[C@H](O)[C@H](Cc1ccc(-c2cnc3ccccc3c2)cc1)NC(=O)[C@@H](NC(=O)OC)C(C)(C)C)C(C)(C)C", "bioavailability", "%", 63),
]

Exam item: Fill in: bioavailability of COC(=O)N[C@H](C(=O)N[C@@H](Cc1ccccc1)C[C@H](O)[C@H](Cc1ccc(-c2ccc(C(C)=O)cc2)cc1)NC(=O)[C@@H](NC(=O)OC)C(C)(C)C)C(C)(C)C is ___
Marked response: 27

Sourced from ChEMBL document CHEMBL1833957
